Target: HLA-B*15:01
Assay: IEDB peptide-MHC binding, purified MHC/competitive/radioactivity; filed as Kd, often an IC50 or EC50 that approximates it; bounds were set here for any values at or beyond the usual limits of such assays
Conditions: source organism: Dengue virus 2 Jamaica/1409/1983
Result Type: Kd (nM)
// units = nM; emit number, no label

Please report the recorded Kd for KTWAYHGSY .
2.88

====

Biological target: HLA-A*23:01
Test: IEDB peptide-MHC binding, purified MHC/direct/fluorescence; filed as Kd, often an IC50 or EC50 that approximates it; bounds were set here for any values at or beyond the usual limits of such assays
Settings: source organism: Zaire ebolavirus
pKd: −log10 of the molar value.
Result Type: pKd

Please report the recorded pKd for WQQWDRQSL .
≤ 4.70

Please report the recorded pKd for TTEANAGQF .
≤ 4.70

Please report the recorded pKd for DETFVHSGF .
≤ 4.70

====

Biological target: HLA-B*48:01
Experiment: IEDB peptide-MHC binding, purified MHC/direct/fluorescence; filed as Kd, often an IC50 or EC50 that approximates it; bounds were set here for any values at or beyond the usual limits of such assays
Details: source organism: Yellow fever virus 17D
pKd: −log10 of the molar value.
Result Type: pKd

Please report the recorded pKd for CRTAFKPVL .
≤ 4.70

====

Target: HLA-A*02:02
Test: IEDB peptide-MHC binding, purified MHC/competitive/radioactivity; filed as Kd, often an IC50 or EC50 that approximates it; bounds were set here for any values at or beyond the usual limits of such assays
Details: source organism: Mammarenavirus brazilense
Result Type: Kd (nM)
// units = nM; emit number, no label

Checklist item: Kd tested on HLA-A*02:02, entry GLLEWIFRA , value?
21.9

====

Biological target: HLA-A*02:03
Experiment: IEDB peptide-MHC binding, purified MHC/competitive/fluorescence; filed as Kd, often an IC50 or EC50 that approximates it; bounds were set here for any values at or beyond the usual limits of such assays
Details: source organism: Yersinia mollaretii ATCC 43969
pKd: −log10 of the molar value.
Result Type: pKd

Please report the recorded pKd for DEQEFFYSQ .
≤ 4.70

====

Biological target: HLA-B*15:01
Experiment: IEDB peptide-MHC binding, purified MHC/direct/fluorescence; filed as Kd, often an IC50 or EC50 that approximates it; bounds were set here for any values at or beyond the usual limits of such assays
Details: source organism: Brucella suis 1330
Result Type: Kd

Please report the recorded Kd for MHCDFAFWV .
≥ 20 µM

====

Molecular target: HLA-A*68:02
Assay: IEDB peptide-MHC binding, purified MHC/direct/fluorescence; filed as Kd, often an IC50 or EC50 that approximates it; bounds were set here for any values at or beyond the usual limits of such assays
Conditions: source organism: Orthohantavirus andesense
Result Type: Kd

Please report the recorded Kd for EVLKAMSLY .
≥ 20 µM

====

Target: HLA-A*03:01
Experiment: IEDB peptide-MHC binding, purified MHC/competitive/radioactivity; filed as Kd, often an IC50 or EC50 that approximates it; bounds were set here for any values at or beyond the usual limits of such assays
Conditions: source organism: Triticum aestivum
Result Type: Kd (nM)
// units = nM; emit number, no label

Checklist item: Kd tested on HLA-A*03:01, entry VSFQQPLQQY , value?
2340

====

Target: HLA-A*33:01
Experiment: IEDB peptide-MHC binding, purified MHC/competitive/radioactivity; filed as Kd, often an IC50 or EC50 that approximates it; bounds were set here for any values at or beyond the usual limits of such assays
Conditions: source organism: Dengue virus 2 Jamaica/1409/1983
Each item that follows carries a reported log10 Kd.
// do not treat as linear: log10 of Kd, unit nM

A selection of reference data follows.
# Sequence Content, log10 Kd
data = [
    ("EAKQPATLR", 1.00),
    ("YMPSMKRFR", 0.88),
]

Please report the recorded log10 Kd for DLPVWLAYR .
0.60

Please report the recorded log10 Kd for STYGWNLVR .
0.46

Please report the recorded log10 Kd for IMQAGKRSLR .
2.34

Please report the recorded log10 Kd for FMALVAFLR .
1.03

Please report the recorded log10 Kd for SYSMCTGKFK .
2.92

Please report the recorded log10 Kd for DIQQWEPSR .
2.05
